targetOrTestSystem: T1, COX-1 (Ovis aries, UniProt P05979)
T1 construct: purchased BioVision (Milpitas, CA, USA) K548-100
T1 sequence (P05979 25-600): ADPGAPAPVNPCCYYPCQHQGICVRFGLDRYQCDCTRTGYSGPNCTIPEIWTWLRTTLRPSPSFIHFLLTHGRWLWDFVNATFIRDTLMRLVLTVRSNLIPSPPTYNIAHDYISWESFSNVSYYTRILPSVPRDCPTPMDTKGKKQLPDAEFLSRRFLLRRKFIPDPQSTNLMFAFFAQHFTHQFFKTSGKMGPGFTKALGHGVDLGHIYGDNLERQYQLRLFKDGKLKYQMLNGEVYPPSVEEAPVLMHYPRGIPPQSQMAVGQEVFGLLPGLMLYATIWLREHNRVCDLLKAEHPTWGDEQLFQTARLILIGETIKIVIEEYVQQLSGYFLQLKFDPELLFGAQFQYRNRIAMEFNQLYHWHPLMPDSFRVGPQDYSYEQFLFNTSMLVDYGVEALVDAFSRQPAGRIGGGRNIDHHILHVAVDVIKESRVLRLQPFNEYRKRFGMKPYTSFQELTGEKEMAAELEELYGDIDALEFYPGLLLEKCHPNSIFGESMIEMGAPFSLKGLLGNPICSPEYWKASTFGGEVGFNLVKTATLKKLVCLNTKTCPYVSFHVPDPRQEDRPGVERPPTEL
testDescription: Fluorimetric COX-1 inhibition screening kit (BioVision)
Format: biochemical
conditionParameters: 10^−9 M
Method: Inhibitory potency of the compounds on COX-1 and COX-2 enzymes was determined by using fluorimetric COX-1 and COX-2 inhibition screening kits from BioVision (Milpitas, CA, USA). […] Fluorescence intensities of the samples were kinetically measured at 25 °C for 5–10 min by monitoring emissions at 587 nm after excitation at 535 nm. Two appropriate points (T1 and T2) in the linear range of the plot were chosen and the corresponding fluorescence values (RFU1 and RFU2) were obtained. […]
reportedProperty: inhibition at 0.001 µM
Give your result as the value with the unit written after it.

# count of solved cases: 5
COc1ccc(-c2nc3ccccc3n2CCN2CCOCC2)cc1; 19.6%
Cc1ccc(-c2nc3ccccc3n2CCN2CCOCC2)cc1; 28.8%
CCN(CC)c1ccc(-c2nc3ccccc3n2CCN2CCOCC2)cc1; 24.2%
FC(F)(F)Oc1ccc(-c2nc3ccccc3n2CCN2CCOCC2)cc1; 20%
c1ccc(COc2ccc(-c3nc4ccccc4n3CCN3CCOCC3)cc2)cc1; 29.9%

We next turn to a different compound, shown below.
Exercise: GET /values?readout=inhibition at 0.001 µM&item= CCOc1ccc(-c2nc3ccccc3n2CCN2CCOCC2)cc1
Key: 23.4%

----------
targetOrTestSystem: COX-1 (Ovis aries, UniProt P05979)
Construct: purchased BioVision (Milpitas, CA, USA) K548-100
testDescription: Fluorimetric COX-1 inhibition screening kit (BioVision)
Format: biochemical
conditionParameters: 10^-4 M
reportedProperty: COX-1 Inhibition (%)
Write the value in % as a bare number.

N#Cc1ccc(-c2nc3ccccc3n2CCN2CCOCC2)cc1; 28.13
CCN(CC)c1ccc(-c2nc3ccccc3n2CCN2CCOCC2)cc1; 78.21
c1ccc(COc2ccc(-c3nc4ccccc4n3CCN3CCOCC3)cc2)cc1; 79.08

Exercise: GET /values?readout=COX-1 Inhibition (%)&item= Cc1ccc(-c2nc3ccccc3n2CCN2CCOCC2)cc1
Key: 71.23

Exercise: GET /values?readout=COX-1 Inhibition (%)&item= CSc1ccc(-c2nc3ccccc3n2CCN2CCOCC2)cc1
Key: 32.78

Exercise: GET /values?readout=COX-1 Inhibition (%)&item= CC(C)c1ccc(-c2nc3ccccc3n2CCN2CCOCC2)cc1
Key: 19.88

Exercise: GET /values?readout=COX-1 Inhibition (%)&item= Clc1ccc(-c2nc3ccccc3n2CCN2CCOCC2)cc1
Key: 22.15

Exercise: GET /values?readout=COX-1 Inhibition (%)&item= Fc1ccc(-c2nc3ccccc3n2CCN2CCOCC2)cc1
Key: 29.36

Exercise: GET /values?readout=COX-1 Inhibition (%)&item= FC(F)(F)Oc1ccc(-c2nc3ccccc3n2CCN2CCOCC2)cc1
Key: 78.61

Exercise: GET /values?readout=COX-1 Inhibition (%)&item= CCOc1ccc(-c2nc3ccccc3n2CCN2CCOCC2)cc1
Key: 88.68

Exercise: GET /values?readout=COX-1 Inhibition (%)&item= COc1ccc(-c2nc3ccccc3n2CCN2CCOCC2)cc1
Key: 87.62

Exercise: GET /values?readout=COX-1 Inhibition (%)&item= FC(F)(F)c1ccc(-c2nc3ccccc3n2CCN2CCOCC2)cc1
Key: 33.46

Exercise: GET /values?readout=COX-1 Inhibition (%)&item= CN(C)c1ccc(-c2nc3ccccc3n2CCN2CCOCC2)cc1
Key: 22.62

Exercise: GET /values?readout=COX-1 Inhibition (%)&item= Brc1ccc(-c2nc3ccccc3n2CCN2CCOCC2)cc1
Key: 21.74

Exercise: GET /values?readout=COX-1 Inhibition (%)&item= c1ccc(-c2ccc(-c3nc4ccccc4n3CCN3CCOCC3)cc2)cc1
Key: 34.00

----------
targetOrTestSystem: COX-2 (Homo sapiens, UniProt P35354)
Construct: purchased BioVision (Milpitas, CA, USA) K547-100
Sequence (P35354 18-604): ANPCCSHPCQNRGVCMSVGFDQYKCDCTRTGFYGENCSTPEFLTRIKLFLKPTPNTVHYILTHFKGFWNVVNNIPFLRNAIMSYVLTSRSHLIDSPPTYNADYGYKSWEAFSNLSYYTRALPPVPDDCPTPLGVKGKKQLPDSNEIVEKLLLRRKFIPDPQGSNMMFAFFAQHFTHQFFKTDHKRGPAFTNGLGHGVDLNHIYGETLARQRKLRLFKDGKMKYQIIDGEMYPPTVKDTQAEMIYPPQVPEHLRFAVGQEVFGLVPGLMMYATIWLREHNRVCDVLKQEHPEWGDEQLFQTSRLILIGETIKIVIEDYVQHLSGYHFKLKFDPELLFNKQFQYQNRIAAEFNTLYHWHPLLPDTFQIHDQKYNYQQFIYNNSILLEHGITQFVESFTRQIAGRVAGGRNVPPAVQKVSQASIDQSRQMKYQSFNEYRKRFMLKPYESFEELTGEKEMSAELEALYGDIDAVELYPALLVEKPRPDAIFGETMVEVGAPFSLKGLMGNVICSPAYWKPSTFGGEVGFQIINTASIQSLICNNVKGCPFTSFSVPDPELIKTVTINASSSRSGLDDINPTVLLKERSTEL
testDescription: Fluorimetric COX-2 inhibition screening kit (BioVision)
Type: biochemical
conditionParameters: 10^-4 M
Each item that follows carries a reported COX-2 Inhibition (%).
Write the value in % as a bare number.

# count of solved cases: 3
COc1ccc(-c2nc3ccccc3n2CCN2CCOCC2)cc1 [Compound 2b]; 84.23
CSc1ccc(-c2nc3ccccc3n2CCN2CCOCC2)cc1 [Compound 2n]; 33.46
Clc1ccc(-c2nc3ccccc3n2CCN2CCOCC2)cc1 [Compound 2c]; 20.99

Exercise: GET /values?readout=COX-2 Inhibition (%)&item= CCN(CC)c1ccc(-c2nc3ccccc3n2CCN2CCOCC2)cc1 [Compound 2h]
Key: 57.08

Exercise: GET /values?readout=COX-2 Inhibition (%)&item= c1ccc(COc2ccc(-c3nc4ccccc4n3CCN3CCOCC3)cc2)cc1 [Compound 2f]
Key: 60.20

Exercise: GET /values?readout=COX-2 Inhibition (%)&item= CCOc1ccc(-c2nc3ccccc3n2CCN2CCOCC2)cc1 [Compound 2j]
Key: 79.23

----------
targetOrTestSystem: human recombinant MAO-B (Homo sapiens)
Sequence (P27338 whole entry): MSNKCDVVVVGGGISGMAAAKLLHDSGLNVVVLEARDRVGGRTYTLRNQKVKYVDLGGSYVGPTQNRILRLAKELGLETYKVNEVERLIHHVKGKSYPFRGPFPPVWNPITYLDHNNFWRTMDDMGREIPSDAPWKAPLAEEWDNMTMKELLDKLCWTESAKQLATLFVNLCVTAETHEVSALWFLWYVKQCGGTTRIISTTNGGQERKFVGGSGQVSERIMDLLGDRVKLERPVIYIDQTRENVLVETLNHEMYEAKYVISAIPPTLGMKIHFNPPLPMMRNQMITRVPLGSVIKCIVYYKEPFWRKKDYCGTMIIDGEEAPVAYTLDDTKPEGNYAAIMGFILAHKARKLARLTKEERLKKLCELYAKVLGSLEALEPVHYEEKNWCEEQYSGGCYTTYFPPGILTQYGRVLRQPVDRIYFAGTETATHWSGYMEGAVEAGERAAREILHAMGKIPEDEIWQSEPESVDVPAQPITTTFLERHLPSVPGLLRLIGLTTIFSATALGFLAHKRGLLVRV
testDescription: MAO inhibition assay (kynuramine, fluorimetric)
Format: biochemical
conditionParameters: 10^-4 M
Each item that follows carries a reported MAO-B Inhibition (%).

c1ccc(-c2ccc(-c3nc4ccccc4n3CCN3CCOCC3)cc2)cc1; 23.54%

Exercise: GET /values?readout=MAO-B Inhibition (%)&item= Fc1ccc(-c2nc3ccccc3n2CCN2CCOCC2)cc1
Key: 38.96%

Exercise: GET /values?readout=MAO-B Inhibition (%)&item= Clc1ccc(-c2nc3ccccc3n2CCN2CCOCC2)cc1
Key: 33.54%

Exercise: GET /values?readout=MAO-B Inhibition (%)&item= CC(C)c1ccc(-c2nc3ccccc3n2CCN2CCOCC2)cc1
Key: 26.65%

Exercise: GET /values?readout=MAO-B Inhibition (%)&item= N#Cc1ccc(-c2nc3ccccc3n2CCN2CCOCC2)cc1
Key: 34.29%

Exercise: GET /values?readout=MAO-B Inhibition (%)&item= CSc1ccc(-c2nc3ccccc3n2CCN2CCOCC2)cc1
Key: 32.24%

----------
targetOrTestSystem: T1, COX-1 (Ovis aries, UniProt P05979)
T1 construct: purchased BioVision (Milpitas, CA, USA) K548-100
testDescription: Fluorimetric COX-1 inhibition screening kit (BioVision)
Assay type: biochemical
Method: Inhibitory potency of the compounds on COX-1 and COX-2 enzymes was determined by using fluorimetric COX-1 and COX-2 inhibition screening kits from BioVision (Milpitas, CA, USA). […] Fluorescence intensities of the samples were kinetically measured at 25 °C for 5–10 min by monitoring emissions at 587 nm after excitation at 535 nm. Two appropriate points (T1 and T2) in the linear range of the plot were chosen and the corresponding fluorescence values (RFU1 and RFU2) were obtained. […]
Each item that follows carries a reported IC50.
Give your result as the value with the unit written after it.

Cc1ccc(-c2nc3ccccc3n2CCN2CCOCC2)cc1 [Compound 2a]; 56.1 µM
CCOc1ccc(-c2nc3ccccc3n2CCN2CCOCC2)cc1 [Compound 2j]; 14.2 µM
COc1ccc(-c2nc3ccccc3n2CCN2CCOCC2)cc1 [Compound 2b]; 8.1 µM
CCN(CC)c1ccc(-c2nc3ccccc3n2CCN2CCOCC2)cc1 [Compound 2h]; 43 µM

Exercise: GET /values?readout=IC50&item= c1ccc(COc2ccc(-c3nc4ccccc4n3CCN3CCOCC3)cc2)cc1 [Compound 2f]
Key: 43.2 µM

Exercise: GET /values?readout=IC50&item= FC(F)(F)Oc1ccc(-c2nc3ccccc3n2CCN2CCOCC2)cc1 [Compound 2m]
Key: 21.9 µM
